Data provenance is ChEMBL document CHEMBL4346657.

Listing: GI50 of selected molecules
Test system: SF-295
TEST SUMMARY: Antiproliferative activity against human SF295 cells assessed as growth inhibition after 48 hrs by sulforhodamine B assay
Assay type: functional
RECORDED CONDITIONS: SF-295, 48 h

| SMILES DATA | SYSTEM TESTED | GI50 [nM] |
| --- | --- | --- |
| COc1cc(OC)cc(-c2ccc(-c3ccc(C(=N)N)o3)o2)c1 | SF-295 | 2080 |
| N=C(N)c1ccc(-c2ccc(-c3ccc4ccccc4c3)s2)s1 | SF-295 | 2270 |
| COc1cc(-c2ccc(-c3ccc(C(=N)N)s3)s2)cc(OC)c1OC | SF-295 | 1780 |
| N=C(N)c1ccc(-c2ccc(-c3ccc(F)cc3)s2)s1 | SF-295 | 1610 |
